Let's look at some substances and their measured MBIC.
# Test system: E. coli (ATCC CRM 8739) biofilm
# Type: cell-based, Escherichia coli
# recordedConditions: ATCC CRM 8739, 24 h
No end group written: not given here.
Just the number please, in µM, no unit attached.

Reference set (3 entries):
FLPLIIGALSSKLPKIF-NH2 [Temporin-PKE-K12]: 64
FLPKIIGKLSSKLPKIF-NH2 [Temporin-PKE-4K]: 128
FLPLIIGKLSSLLPKIF-NH2 [Temporin-PKE-2K]: 64

Find the measured MBIC: item FLPKIIGKLSSLLPKIF-NH2 [Temporin-PKE-3K] , target or system E. coli (ATCC CRM 8739) biofilm. 16

###

Let's look at some substances and their measured MBIC.
# Test system: MRSA (NCTC 12493) biofilm
# Type: cell-based, methicillin-resistant Staphylococcus aureus
# recordedConditions: NCTC 12493, 24 h
No end group written: not given here.
Just the number please, in µM, no unit attached.

Reference set (2 entries):
FLPKIIGKLSSKLPKIF-NH2 [Temporin-PKE-4K]: 32
FLPKIIGKLSSLLPKIF-NH2 [Temporin-PKE-3K]: 2

Find the measured MBIC: item FLPLIIGKLSSLLPKIF-NH2 [Temporin-PKE-2K] , target or system MRSA (NCTC 12493) biofilm. 2

Lookup FLPLIIGALSSKLPKIF-NH2 [Temporin-PKE-K12] 4

Lookup FLPLIIGALSSLLPKIF-NH2 [Temporin-PKE] 4

###

Let's look at some substances and their measured MBC.
# Tested on: E. faecalis (NCTC 12697)
# assayNotes: microbe, parasite or virus in culture
# Format: cell-based, Enterococcus faecalis
# recordedConditions: NCTC 12697, 18 h
No end group written: not given here.
Just the number please, in µM, no unit attached.

Request the reported MBC associated with FLPKIIGKLSSKLPKIF-NH2 [Temporin-PKE-4K] 32

Lookup FLPLIIGALSSKLPKIF-NH2 [Temporin-PKE-K12] 8

Lookup FLPLIIGALSSLLPKIF-NH2 [Temporin-PKE] 8

Lookup FLPKIIGKLSSLLPKIF-NH2 [Temporin-PKE-3K] 2

Lookup FLPLIIGKLSSLLPKIF-NH2 [Temporin-PKE-2K] 2

###

# System: S. aureus (ATCC 6538) biofilm
# Assay type: cell-based, Staphylococcus aureus
# recordedConditions: ATCC 6538, 24 h
No end group written: not given here.
Let's look at some substances and their measured MBIC.
Just the number please, in µM, no unit attached.

Reference set (4 entries):
FLPKIIGKLSSLLPKIF-NH2 [Temporin-PKE-3K]: 2
FLPKIIGKLSSKLPKIF-NH2 [Temporin-PKE-4K]: 32
FLPLIIGALSSLLPKIF-NH2 [Temporin-PKE]: 2
FLPLIIGKLSSLLPKIF-NH2 [Temporin-PKE-2K]: 2

Let us examine a further case.
Request the reported MBIC associated with FLPLIIGALSSKLPKIF-NH2 [Temporin-PKE-K12] 4

###

# System: horse red blood cells
# Format: cell-based
No end group written: not given here.
property: HC50
Don't forget the unit after the number, please.

Reference set (3 entries):
FLPKIIGKLSSKLPKIF-NH2 [Temporin-PKE-4K]: 1671 µM
FLPLIIGALSSKLPKIF-NH2 [Temporin-PKE-K12]: 122.7 µM
FLPLIIGALSSLLPKIF-NH2 [Temporin-PKE]: 6.58 µM

Let us examine a further case.
Request the reported HC50 associated with FLPKIIGKLSSLLPKIF-NH2 [Temporin-PKE-3K] 87.47 µM

###

# Tested on: K. pneumoniae (ATCC 43816)
# Format: cell-based, Klebsiella pneumoniae
# recordedConditions: ATCC 43816, 24 h
No end group written: not given here.
Let's look at some substances and their measured MIC against K. pneumoniae in the presence of 2 mM CaCl2.
Just the number please, in µM, no unit attached.

FLPKIIGKLSSKLPKIF-NH2 [Temporin-PKE-4K]: 128
FLPLIIGALSSKLPKIF-NH2 [Temporin-PKE-K12]: 256
FLPKIIGKLSSLLPKIF-NH2 [Temporin-PKE-3K]: 16

Let us examine a further case.
Request the reported MIC against K. pneumoniae in the presence of 2 mM CaCl2 associated with FLPLIIGKLSSLLPKIF-NH2 [Temporin-PKE-2K] 32

###

# Test system: K. pneumoniae (ATCC 43816)
# Type: cell-based, Klebsiella pneumoniae
# recordedConditions: ATCC 43816, 24 h
# Procedure: The antimicrobial activities of peptides were evaluated against the Gram-positive bacteria, S. aureus (ATCC 6538), methicillin-resistant Staphylococcus aureus (MRSA) (NCTC 12493), Enterococcus faecalis (E. faecalis) (NCTC 12697); the Gram-negative bacteria, E. coli (ATCC CRM 8739), Klebsiella pneumoniae (K. pneumoniae) (ATCC 43816), Pseudomonas aeruginosa (P. aeruginosa) (ATCC CRM 9027); and the yeast, Candida albicans (C. albicans) (ATCC CRM 10231). […]
No end group written: not given here.
Let's look at some substances and their measured MIC against K. pneumoniae in the presence of 6 µM NH4Cl.
Just the number please, in µM, no unit attached.

FLPKIIGKLSSKLPKIF-NH2 [Temporin-PKE-4K]: 16
FLPLIIGKLSSLLPKIF-NH2 [Temporin-PKE-2K]: 16

Request the reported MIC against K. pneumoniae in the presence of 6 µM NH4Cl associated with FLPKIIGKLSSLLPKIF-NH2 [Temporin-PKE-3K] 4

Lookup FLPLIIGALSSKLPKIF-NH2 [Temporin-PKE-K12] 32

###

# Tested on: E. coli (ATCC CRM 8739)
# assayNotes: microbe, parasite or virus in culture
# Format: cell-based, Escherichia coli
# recordedConditions: ATCC CRM 8739, 24 h
No end group written: not given here.
Let's look at some substances and their measured MIC.
Just the number please, in µM, no unit attached.

FLPLIIGALSSKLPKIF-NH2 [Temporin-PKE-K12]: 8
FLPKIIGKLSSLLPKIF-NH2 [Temporin-PKE-3K]: 2
FLPKIIGKLSSKLPKIF-NH2 [Temporin-PKE-4K]: 4

Let us examine a further case.
Request the reported MIC associated with FLPLIIGKLSSLLPKIF-NH2 [Temporin-PKE-2K] 4

###

# Tested on: S. aureus (ATCC 6538)
# assayNotes: microbe, parasite or virus in culture
# Format: cell-based, Staphylococcus aureus
# recordedConditions: ATCC 6538, 24 h
No end group written: not given here.
property: MIC (µM)
Just the number please, in µM, no unit attached.

Reference set (4 entries):
FLPLIIGALSSKLPKIF-NH2 [Temporin-PKE-K12]: 4
FLPLIIGALSSLLPKIF-NH2 [Temporin-PKE]: 2
FLPKIIGKLSSKLPKIF-NH2 [Temporin-PKE-4K]: 32
FLPLIIGKLSSLLPKIF-NH2 [Temporin-PKE-2K]: 2

Let us examine a further case.
Request the reported MIC associated with FLPKIIGKLSSLLPKIF-NH2 [Temporin-PKE-3K] 2

###

# Test system: C. albicans (ATCC CRM 10231)
# assayNotes: organism not typed
# Format: cell-based, Candida albicans
# recordedConditions: ATCC CRM 10231, 18 h; read-out: MBC
No end group written: not given here.
property: MBC

Reference set (3 entries):
FLPKIIGKLSSLLPKIF-NH2 [Temporin-PKE-3K]: 64 µM
FLPLIIGKLSSLLPKIF-NH2 [Temporin-PKE-2K]: >512 µM
FLPLIIGALSSKLPKIF-NH2 [Temporin-PKE-K12]: >512 µM

Request the reported MBC associated with FLPLIIGALSSLLPKIF-NH2 [Temporin-PKE] >512 µM

###

Let's look at some substances and their measured MBC.
# System: MRSA (NCTC 12493)
# assayNotes: microbe, parasite or virus in culture
# Assay type: cell-based, methicillin-resistant Staphylococcus aureus
# recordedConditions: NCTC 12493, 18 h
No end group written: not given here.
Just the number please, in µM, no unit attached.

FLPLIIGALSSKLPKIF-NH2 [Temporin-PKE-K12]: 4

Request the reported MBC associated with FLPKIIGKLSSKLPKIF-NH2 [Temporin-PKE-4K] 32

Lookup FLPLIIGKLSSLLPKIF-NH2 [Temporin-PKE-2K] 2
